experiment: NCI Yeast Anticancer Drug Screen. Data for the mec2-1 strain (AID 157); settings: S. cerevisiae mec2-1 strain, at 50.0 µM, stronger effect = higher value
Compounds without any hit were thinned out: in the full panel of roughly 79,000, 15% have a hit.
reportedEndpoint: growth inhibition (%)
Provide only the numeric value, understood in %.

Some entries whose results are on file:
O=C(N=C1[Se]C(=Nc2ccccc2)C(=Nc2ccccc2)N1c1ccccc1)c1ccccc1: 5.1
[Cl][Tb]([Cl])[Cl]: 8
CCNc1ccc(Cl)cc1[N+](=O)[O-]: -66.2
Cc1cccc(C2=N/C(=C\c3ccc4c(c3)OC(O)O4)C(=O)O2)c1 (stereo not given): 6.55

Problem: Param item = `CN(C)CCC(=O)Cc1ccccc1` ; retrieve measured growth inhibition.
Result: -12.3

Problem: Consider the molecule CCOC(=O)NC1OC(C(N)=O)C(O)C(O)C1O (stereo not given) and give its measured growth inhibition.
Result: -5.7

Problem: Any idea what growth inhibition was measured for `Oc1c(Cl)cccc1CN1CCOCC1` ?
Result: 6.15

Problem: Reported growth inhibition for `C=CC(C)(C)C1=CC(=O)C(OC)=CC1=O` : what is it?
Result: -6.15

Problem: Which growth inhibition reading was recorded for the molecule `Cc1ccc(S(=O)(=O)NNC(=O)c2ccc[nH]2)cc1` ?
Result: -24.2

Problem: // returns reported growth inhibition for input `c1cc(CSC2=NCCN2)ccc1CSC1=NCCN1`
Result: 9.25

Problem: Report growth inhibition for `NCCN(Cc1ccccc1)C1CC1` please.
Result: -33.6

Problem: What value of measured growth inhibition is listed for COc1nc(NC2OC(CO)C(O)C(O)C2O)c(/C=N/O)c(=O)n1C (stereo not given) ?
Result: 2.25

Problem: Quick one: growth inhibition for CCCCCCC[CH2][Sn]1([CH2]CCCCCCC)[O]C2C(CO)OC(n3ccc4c(N)ncnc43)C2[O]1 (stereo not given) ?
Result: 15.2

Problem: Requested field: growth inhibition. Item: `CCSc1nc(C)cc(=O)[nH]1`
Result: -1.35

Problem: Endpoint output: growth inhibition of CCN(CC)CCOC(=O)C(S)(c1ccccc1)C1CCCCC1 (stereo not given) . Value?
Result: -7.3

Problem: Fill in: growth inhibition of C=C(CCC(Cl)C(O)CO)[Si](C)(C)C (stereo not given) is ___
Result: -19.2

Problem: Entry under review: C1CC2CCC1CN(C1COC(N3CC4CCC(CC4)C3)CO1)C2 (stereo not given) . Reported growth inhibition?
Result: 1.55

Problem: Dear colleague, I am looking for the recorded growth inhibition of the following molecule: `CC12CC3CC(C1)CC(NCCO)(C3)C2`
Result: -13.7

Problem: What growth inhibition value was documented for this molecule, `Cc1ccc(S(=O)(=O)Nc2ccccc2-c2nc3ccc([N+](=O)[O-])cc3c(=O)o2)cc1` ?
Result: 36.2

Problem: # lookup: growth inhibition of `Cc1c(C#N)c2n(c1C)CC(=O)N2`
Result: 0.45

Problem: I'd like to know its growth inhibition. The molecule in question is CCOc1ccc(C2=NN(CC)C(=O)C(C3C(=O)N(c4ccccc4)N=C3C)C2)cc1 (stereo not given)
Result: -7.3

Problem: Please give the measured growth inhibition for this molecule: COc1cccc(CC2C(=O)N=C(NC(C)=O)N2C)c1OC(C)=O (stereo not given)
Result: -7.4

Problem: Bench note: what growth inhibition did `CC(=O)N1CC=CCC1` show?
Result: 5.85

Problem: Name the recorded growth inhibition for `CCCC(C(=O)O)(c1ccccc1)c1ccccc1` .
Result: 0.55

Problem: Record request: growth inhibition value, item `Clc1ccc(/C=N/N2CCN(/N=C/c3ccc(Cl)cc3)CC2)cc1`
Result: -10.3

----------
test: NCI Yeast Anticancer Drug Screen. Data for the mec2-1 strain (AID 157); settings: S. cerevisiae mec2-1 strain, at 50.0 µM, stronger effect = higher value
The panel holds about 79,000 compounds, 15% with a hit somewhere; the sample as a whole holds those more often.
reportedEndpoint: growth inhibition (%)
Give just the numeric value; % need not be written.

Problem: Given the entry `Cn1c(=O)c2c(ncn2CCN2CCNCC2)n(C)c1=O` , report its measured growth inhibition.
Result: -12.8

Problem: Fill in the blank: the reported growth inhibition of CC(O)C(NC(=O)Nc1ncnc2nc[nH]c12)C(=O)O (stereo not given) is ____.
Result: 4.3

Problem: Need growth inhibition, item `CCC(/C=C/c1ccccc1)=N\NC(=O)c1ccc(C)cc1`
Result: 10.7

Problem: Sample `CC1=C(C(=O)Nc2ccccc2C)C(c2ccc(C3C(C(=O)Nc4ccccc4C)=CNC=C3C(=O)Nc3ccccc3C)cc2)C(C(=O)Nc2ccccc2C)=C(C)N1` — what was its growth inhibition?
Result: 44.8

Problem: If you can, please state the reported growth inhibition value of `CC(=O)Nc1ccc(S(=O)(=O)c2ccc(NC(C)=O)s2)s1` .
Result: -1.3

Problem: Given `CCCCSc1nc2c(=O)[nH][nH]c(=O)c2n1Cc1ccccc1` , state its recorded growth inhibition.
Result: 3.45

Problem: I'd like to know its growth inhibition. The compound in question is N#CC1(C(N)=O)OC1c1ccccc1Cl (stereo not given)
Result: -18.1

Problem: Dear colleague, I am looking for the recorded growth inhibition of the following compound: `CCOC(=O)C(C(=O)OCC)=C1N[C@H](C(=O)OCC)CS1`
Result: -17.5

Problem: Any idea what its growth inhibition is? The compound is `CCOC(=O)/C(C=Nc1c(C)n(C)n(-c2ccccc2)c1=O)=C(/C)O`
Result: 10.7

----------
assay: NCI Yeast Anticancer Drug Screen. Data for the sgs1 mgt1 strain (AID 161);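 also: 0% = growth of cultures given vehicle only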; details: S. cerevisiae sgs1 mgt1 strain, at 50.0 µM, stronger effect = higher value
About 79,000 compounds went through this panel and 15% of them were active in at least one assay; those are over-represented in the sample as a whole.
reportedEndpoint: growth inhibition (%)
Respond numerically; units are % and should not be typed.

Example compounds with recorded growth inhibition:
O=c1cc(-c2ccc3ccccc3n2)oc2ccccc12: 3.7
CC1C=CC(O)[C@]2(CO)CC3(CCC12)OCCO3 (stereo partly drawn): -13.6
CC(C)(C)C(C(N)=O)C(C)(C)C: -6.1
CO/N=C1\C(C)(C)C(C)(C)C(C)(C)C1(C)SS(=O)(=O)O (stereo not drawn): 12.6
O=C1CN(c2cccc(Cl)c2)C(=O)CN1NCNN1CC(=O)N(c2cccc(Cl)c2)CC1=O: 3.9
C/C(CC1CC=CCC1)=N\NC(N)=O (stereo not drawn): -2.6

Problem: # input compound: CCOCCOC(=O)C1CCCC1=O (stereo not drawn) ; wanted: its growth inhibition
Result: -34.9

Problem: Which growth inhibition is listed for `N#Cc1nc(CC(=O)/C=C/c2ccccc2)c(CC(=O)/C=C/c2ccccc2)nc1C#N` ?
Result: 8.05

Problem: I would be grateful if you could share the reported growth inhibition for `CCCCCCC(O)CCCCCC` .
Result: 26.4

Problem: Please look up its growth inhibition: CC1CC=[N+]([O-])C1(C)C (stereo not drawn)
Result: 14.2

Problem: Suppose we examine the compound `Cc1ccccc1NC(=O)/C=C\C(=O)O` ; what growth inhibition value has been reported?
Result: -0.7

Problem: Recorded growth inhibition of C[Si](C)(/C(=C/COCc1ccccc1)CCOC1CCCCO1)c1ccccc1 (stereo not drawn) , please.
Result: -17.1

Problem: Request the reported growth inhibition associated with `Cc1ccc(S(=O)(=O)N(CCO)CCCO)cc1`
Result: -9.95

Problem: Can you look up the measured growth inhibition of Cc1ccc(-c2c3nc(c(-c4ccc(C)cc4)c4ccc([nH]4)c(-c4ccc(OCC5COC(C)(C)O5)cc4)c4nc(c(-c5ccc(C)cc5)c5ccc2[nH]5)C=C4)C=C3)cc1 (stereo not drawn) for me?
Result: -50.3

Problem: Can you look up the measured growth inhibition of O=C(Cc1ccccc1)N/N=C(/c1nc2ccc([N+](=O)[O-])cc2[nH]c1=O)C(O)c1ccco1 (stereo not drawn) for me?
Result: -4.85

Problem: Entry under review: `Cc1cc(C)c(/C(O)=C/C(=S)N2CCOCC2)c(C)c1` . Reported growth inhibition?
Result: 43.1

Problem: // returns reported growth inhibition for input `Cc1nc(-c2nc(C)c(C(=O)NN(C)C)s2)sc1C(=O)NN(C)C`
Result: 23.2

Problem: // growth inhibition lookup, key: `N#C/C(=N/Nc1ccccc1)c1ccccc1`
Result: -12.1

Problem: I'd like to know its growth inhibition. The compound in question is `CCOC(=O)C1=C(C)N[C@H](c2ccccc2[N+](=O)[O-])N[C@H]1c1ccccc1[N+](=O)[O-]`
Result: 19.9

Problem: Need growth inhibition of `Cc1ccc(S(=O)(=O)N/N=C/c2oc(-c3ccccc3Cl)c(-c3ccccc3Cl)c2[N+](=O)[O-])cc1` , thanks.
Result: 58.5

Problem: Requested read-out: growth inhibition. Entry: `N#Cc1c(N2CCCC2)ncn(Cc2ccccc2)c1=O`
Result: 0.2

Problem: Value lookup for growth inhibition; key = `O=c1cc(C=Nc2cccc(Br)c2)[nH]c(=S)[nH]1`
Result: -15.4

Problem: Entry `Cc1c2cnccc2c(CO)c2[nH]c3ccccc3c12` has what growth inhibition?
Result: 8.2
